Catalogue of IC50 values
target: SUMO-activating enzyme (Homo sapiens, UniProt Q9UBT2); assay: blockers of UBC9-mediated SUMO conjugation – biochemical, AlphaScreen, SUMOylation inhibitor project, confirmation (AID 2018); assay type: functional
Sequence (Q9UBE0 whole entry): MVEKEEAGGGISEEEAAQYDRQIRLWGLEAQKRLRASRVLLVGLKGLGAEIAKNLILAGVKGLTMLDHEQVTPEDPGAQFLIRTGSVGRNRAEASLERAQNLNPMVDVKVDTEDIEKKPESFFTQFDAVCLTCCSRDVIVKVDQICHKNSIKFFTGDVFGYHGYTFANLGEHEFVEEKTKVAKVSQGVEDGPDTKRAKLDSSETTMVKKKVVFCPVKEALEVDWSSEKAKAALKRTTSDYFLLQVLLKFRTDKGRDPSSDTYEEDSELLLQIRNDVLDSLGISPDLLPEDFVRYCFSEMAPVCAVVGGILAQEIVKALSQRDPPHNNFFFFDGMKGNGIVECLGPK
Sequence (Q9UBT2 whole entry): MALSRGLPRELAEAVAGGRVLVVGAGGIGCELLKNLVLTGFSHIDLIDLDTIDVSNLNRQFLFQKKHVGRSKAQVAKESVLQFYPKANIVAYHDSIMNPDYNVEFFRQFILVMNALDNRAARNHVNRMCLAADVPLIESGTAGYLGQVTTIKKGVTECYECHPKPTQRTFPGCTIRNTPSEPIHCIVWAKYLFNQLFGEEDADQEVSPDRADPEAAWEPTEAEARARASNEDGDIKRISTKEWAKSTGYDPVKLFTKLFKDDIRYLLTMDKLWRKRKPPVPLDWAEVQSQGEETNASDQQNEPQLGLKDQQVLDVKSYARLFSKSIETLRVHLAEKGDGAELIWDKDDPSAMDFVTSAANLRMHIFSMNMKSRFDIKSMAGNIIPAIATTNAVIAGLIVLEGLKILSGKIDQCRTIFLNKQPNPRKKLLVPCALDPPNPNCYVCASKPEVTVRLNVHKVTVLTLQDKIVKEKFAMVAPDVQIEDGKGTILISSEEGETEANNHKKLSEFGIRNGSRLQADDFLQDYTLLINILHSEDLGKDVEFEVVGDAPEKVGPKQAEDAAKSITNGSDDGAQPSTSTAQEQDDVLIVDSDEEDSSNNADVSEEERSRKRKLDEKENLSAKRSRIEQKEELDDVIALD
Active and inactive are the calls of the source.

Lookup result for CCOC(=O)c1c(CSc2ccccc2)n(C)c2cc(Br)c(OCC(O)CNC(CO)(CO)CO)cc12 (stereo not given) ; measured IC50: 2.75 µM (active)

Lookup result for `O=C1C=C(Nc2ccccc2)c2ccccc2C1=O` ; measured IC50: 1.47 µM (active)

Lookup result for `COc1ccccc1CNC(=O)COC(=O)c1cc(-c2ccco2)nc2ccccc12` ; measured IC50: 5.42 µM (active)

Lookup result for `CC1=C(C#N)C(=O)NC(=O)/C1=C\c1ccc(-c2cc(C)c(C)cc2[N+](=O)[O-])o1` ; measured IC50: 5.31 µM (active)

Lookup result for `COc1ccccc1C(=O)Nc1ccc(-c2nnn(CC(=O)NCc3ccco3)n2)cc1` ; measured IC50: 27.2 µM (active)

---

tested on: H4; experiment: Luminescence Cell-Based Dose Response HTS to Identify Activators of 5'UTR Stem-Loop Driven Prion Protein mRNA Translation in H4 Neuroglioblastoma Cells. [Related pubchem assays: 1829 (Project Summary), 1814 (Primary HTS)]; format: functional; conditions: Homo sapiens
Activity calls are given as the source filed them.
endpoint_label: EC50

Example molecules with recorded EC50:
>>> print(df.to_string())
                    structure_smiles_string                reading
0  CSCC(=O)N1CCC(n2nccc2NC(=O)c2ccc3c(c2)OCO3)CC1  > 120 µM (not active)
1     Cc1ccc(N=NC2=C(O)OC(C)(C)OC2=O)c(C)c1       19.1 µM (active)
2             N=C1c2ccccc2CN1CC(=O)c1ccccc1          8 µM (active)
3  COc1ccccc1C(=O)Nc1ccc2c(c1)nc(CCNC(=O)c1ccco1)n2C  > 120 µM (not active)
4        Cc1nc2nc(-c3ccc(Cl)cc3)nn2c(C)c1Cl       5.95 µM (active)

Lookup result for `c1csc(CSc2nc3ccccc3s2)c1` ; measured EC50: 36.9 µM (active)

---

target: Ubiquitin-conjugating enzyme E2 N (Homo sapiens, UniProt P61088); type: functional;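 note: Dose-response confirmation in a TR-FRET assay detecting UBC13-driven polyubiquitin chain formation, inhibition measured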
Sequence (P61088 whole entry): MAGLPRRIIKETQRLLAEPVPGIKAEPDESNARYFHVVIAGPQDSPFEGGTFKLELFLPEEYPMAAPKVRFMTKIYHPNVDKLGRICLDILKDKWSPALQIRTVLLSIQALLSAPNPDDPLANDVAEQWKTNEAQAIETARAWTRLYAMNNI
Active and inactive are the calls of the source.
Catalogue of IC50 values

Example compounds with recorded IC50:
In [3]: df
Out[3]:
                                   compound             reading
0  CCN(CC)CCCNC(=O)c1c(O)c2ccccc2n(Cc2ccccc2)c1=O  > 20 µM (inactive)
1       CCOC(=O)c1c(CN2CCCCC2)oc2ccc(O)cc12  > 20 µM (inactive)
2  COc1ccc(C(CNC(=O)COc2c(C)cc(C)cc2C)N2CCOCC2)cc1 (configuration not stated)  > 20 µM (inactive)
3       Cc1cccc(OCCCC(=O)NNC(=O)c2ccccn2)c1  > 20 µM (inactive)
4  Cc1ccc(CS(=O)(=O)c2ncc(Cl)c(C(=O)Nc3nnc(C(C)C)s3)n2)cc1    10.7 µM (active)

Lab entry: Ubiquitin-conjugating enzyme E2 N (Homo sapiens, UniProt P61088) assay, compound `CCCN(CCC)CCNC(=O)c1cc2c(=O)n(CC)c3ccccc3c2s1` , IC50 = > 20 µM (inactive)

Lab entry: Ubiquitin-conjugating enzyme E2 N (Homo sapiens, UniProt P61088) assay, compound CCC(C)[C@H]1CN=C(N)N1CCc1cccc2ccccc12 (some centres not stated) , IC50 = > 20 µM (inactive)
